Target: hAT1R (Homo sapiens, UniProt P30556)
Sequence (P30556 whole entry): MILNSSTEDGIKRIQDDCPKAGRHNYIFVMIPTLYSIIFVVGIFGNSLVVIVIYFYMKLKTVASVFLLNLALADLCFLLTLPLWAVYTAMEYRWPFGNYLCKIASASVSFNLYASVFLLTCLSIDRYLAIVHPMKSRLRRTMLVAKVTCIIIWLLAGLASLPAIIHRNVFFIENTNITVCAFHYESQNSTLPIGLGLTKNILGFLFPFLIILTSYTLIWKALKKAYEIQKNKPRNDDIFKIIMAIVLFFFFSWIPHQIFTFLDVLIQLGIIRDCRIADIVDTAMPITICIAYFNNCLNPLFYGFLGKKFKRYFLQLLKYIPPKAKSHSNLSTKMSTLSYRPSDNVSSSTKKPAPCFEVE
Experiment: FLIPR calcium flux assay, Part II: antagonist activity against Angiotensin II; also: Angiotensin II 10 nM final concentration
Type: cell-based
Details: read-out: hAT1R Antagonist Efficacy Antag (%) Ave
Residues, ends and D or L forms follow the SMILES beside them.
result type: Emax (%)
The reply should contain only the number, in %.

compound | unit abbrev | Emax
CNCC(=O)N[C@@H](CCCNC(=N)N)C(=O)N[C@H](C(=O)N[C@@H](Cc1ccc(O)cc1)C(=O)N[C@H](C(=O)N[C@@H](Cc1c[nH]cn1)C(=O)N1CCC[C@H]1C(=O)N[C@H](Cc1ccccc1Cl)C(=O)O)[C@@H](C)OC)C(C)C [Compound 21] | % | 99
CNCC(=O)N[C@@H](CCCNC(=N)N)C(=O)N[C@H](C(=O)N[C@@H](Cc1ccc(O)cc1)C(=O)N[C@H](C(=O)N[C@@H](Cc1c[nH]cn1)C(=O)N1CCC[C@H]1C(=O)N[C@H](Cc1ccc(Cl)cc1Cl)C(=O)O)C(C)C)C(C)C [Compound 7] (HELM PEPTIDE1{[Sar].R.V.Y.V.H.P.[O=C(O)[C@@H](Cc1ccc(Cl)cc1Cl)N[*:1]]}$$$$V2.0) | % | 99
CNCC(=O)N[C@@H](CCCNC(=N)N)C(=O)N[C@H](C(=O)N[C@@H](Cc1cccc(O)c1)C(=O)N[C@H](C(=O)N[C@@H](Cc1c[nH]cn1)C(=O)N1CCC[C@H]1C(=O)N[C@H](Cc1ccccc1Cl)C(=O)O)C(C)C)C(C)C [Compound 30] (HELM PEPTIDE1{[Sar].R.V.[O=C([C@H](Cc1cccc(O)c1)N[*:1])[*:2]].V.H.P.[O=C(O)[C@@H](Cc1ccccc1Cl)N[*:1]]}$$$$V2.0) | % | 100
CC(C)[C@H](NC(=O)[C@H](CCCNC(=N)N)NC(=O)CNC[C@H](O)[C@@H](O)[C@H](O)[C@H](O)CO)C(=O)N[C@@H](Cc1ccc(O)cc1)C(=O)N[C@H](C(=O)N[C@@H](Cc1c[nH]cn1)C(=O)N1CCC[C@H]1C(=O)N[C@H](Cc1cccc2ccccc12)C(=O)O)C(C)C [Compound 37, Glac-Arg-Val-Tyr-Val-His-Pro-(D-1Nal)-OH] (HELM PEPTIDE1{[O=C(CNC[C@H](O)[C@@H](O)[C@H](O)[C@H](O)CO)[*:2]].R.V.Y.V.H.P.[O=C(O)[C@@H](Cc1cccc2ccccc12)N[*:1]]}$$$$V2.0) | % | 99

Field: next compound
Emax recorded for this compound, CNCC(=O)N[C@@H](CCCNC(=N)N)C(=O)N[C@H](C(=O)N[C@@H](Cc1ccc(O)c(O)c1)C(=O)N[C@H](C(=O)N[C@@H](Cc1c[nH]cn1)C(=O)N1CCC[C@H]1C(=O)N[C@H](Cc1ccccc1Cl)C(=O)O)C(C)C)C(C)C [Compound 32] (HELM PEPTIDE1{[Sar].R.V.[O=C([C@H](Cc1ccc(O)c(O)c1)N[*:1])[*:2]].V.H.P.[O=C(O)[C@@H](Cc1ccccc1Cl)N[*:1]]}$$$$V2.0) , is 99

---

Reported values of Emax for individual entries
Target: hAT1R (Homo sapiens, UniProt P30556)
Assay: FLIPR calcium flux assay, Part I: agonist activity
Format: cell-based
Settings: ChanTest hAT1R stable cells; % MPE, percent of the maximal possible effect; read-out: hAT1R Agonist Efficacy Agonist (%) Ave
Residues, ends and D or L forms follow the SMILES beside them.
The reply should contain only the number, in %.

compound | unit abbrev | Emax
CNCC(=O)N[C@@H](CCCNC(=N)N)C(=O)N[C@H](C(=O)N[C@@H](Cc1ccc(O)cc1)C(=O)N[C@H](C(=O)N[C@@H](Cc1c[nH]cn1)C(=O)N1CCC[C@H]1C(=O)N[C@H](Cc1ccccc1Cl)C(=O)O)C1CCCCC1)C(C)C [Compound 19] (HELM PEPTIDE1{[Sar].R.V.Y.[O=C([C@@H](N[*:1])C1CCCCC1)[*:2]].H.P.[O=C(O)[C@@H](Cc1ccccc1Cl)N[*:1]]}$$$$V2.0) | % | 8
CNCC(=O)N[C@@H](CCCNC(=N)N)C(=O)N[C@H](C(=O)N[C@@H](Cc1ccc(O)cc1)C(=O)N[C@H](C(=O)N[C@@H](Cc1c[nH]cn1)C(=O)N1CCC[C@H]1C(=O)N[C@H](Cc1cccc2ccccc12)C(=O)O)C(C)C)C(C)C [Compound 1, Sar-Arg-Val-Tyr-Val-His-Pro-(D-1Nal)-OH] (HELM PEPTIDE1{[Sar].R.V.Y.V.H.P.[O=C(O)[C@@H](Cc1cccc2ccccc12)N[*:1]]}$$$$V2.0) | % | 5

Field: next compound
Value (Emax, hAT1R (Homo sapiens, UniProt P30556)) for record CNCC(=O)N[C@@H](CCCNC(=N)N)C(=O)N[C@H](C(=O)N[C@@H](Cc1cccc(O)c1)C(=O)N[C@H](C(=O)N[C@@H](Cc1c[nH]cn1)C(=O)N1CCC[C@H]1C(=O)N[C@H](Cc1ccccc1Cl)C(=O)O)C(C)C)C(C)C [Compound 30] (HELM PEPTIDE1{[Sar].R.V.[O=C([C@H](Cc1cccc(O)c1)N[*:1])[*:2]].V.H.P.[O=C(O)[C@@H](Cc1ccccc1Cl)N[*:1]]}$$$$V2.0) = 12
